This collection of values is drawn from patent US4376768A.

- method notes: Incidence of gastric disorders (erosion) in rats
- Type: in vivo, male rats of the Wistar strain
- condition description: rat, in vivo, po
assay metric: TD50 at 6 h (mg/kg)
Give bare numbers, in mg/kg.

Q. Given the entry CN1C(C(=O)Nc2cccc(Cl)n2)C(=O)c2ccccc2S1(=O)=O (stereo not shown) , report its measured TD50 at 6 h.
A. 200

----------
Can you tell me selectivity ratio for the items I'm about to list?
- method notes: in vivo
- condition description: rat, in vivo, po
One number for each entry.

Below are worked cases with known answers.
                                   compound  recorded_result
0  CN1C(C(=O)Nc2nccs2)C(=O)c2ccccc2S1(=O)=O (stereo not shown) [Sudoxicam]              2.3
1  COc1ccc2c(c1)c(CC(=O)O)c(C)n2C(=O)c1ccc(Cl)cc1 [Indomethacin]              1.2
2  CN1C(C(=O)Nc2cccc(Cl)n2)C(=O)c2ccccc2S1(=O)=O (stereo not shown) [Compound of formula (1)]             30.8

Q. Consider the compound shown here: Cc1cccc(NC(=O)C2C(=O)c3ccccc3S(=O)(=O)N2C)n1 (stereo not shown) [6-Methyl-2-pyridyl compound] What is its recorded selectivity ratio?
A. 1.1

----------
- method notes: in vivo
- Type: in vivo
- condition description: mouse, in vivo; Table 1; mice, oral, 7 days; read-out: Acute toxicity, LD50
assay metric: LD50 at 168 h (mg/kg)
Numbers only, in mg/kg.

Q. // returns reported LD50 at 168 h for input CN1C(C(=O)Nc2cccc(Cl)n2)C(=O)c2ccccc2S1(=O)=O (stereo not shown)
A. 4000
